study.system: CquiOR32-CquiOrco (Culex quinquefasciatus, UniProt A0A3S7SHH6)
Construct: gene OR32; full-length OR coexpressed with Orco in Xenopus oocytes; heteromeric ligand-gated cation channel; with Odorant receptor coreceptor Orco
Sequence (A0A3S7SHH6 1-397): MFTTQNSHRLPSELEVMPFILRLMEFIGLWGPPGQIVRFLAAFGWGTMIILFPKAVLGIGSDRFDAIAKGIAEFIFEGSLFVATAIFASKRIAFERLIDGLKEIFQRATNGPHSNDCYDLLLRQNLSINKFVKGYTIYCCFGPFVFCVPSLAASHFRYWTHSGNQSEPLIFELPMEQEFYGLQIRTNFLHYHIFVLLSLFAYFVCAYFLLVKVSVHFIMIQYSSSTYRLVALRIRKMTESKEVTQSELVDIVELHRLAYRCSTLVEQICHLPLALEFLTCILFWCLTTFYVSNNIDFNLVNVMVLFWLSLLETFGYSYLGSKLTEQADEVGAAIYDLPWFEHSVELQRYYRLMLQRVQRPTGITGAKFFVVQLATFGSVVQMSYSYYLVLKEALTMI
Sequence (Q309I4 1-480 partner): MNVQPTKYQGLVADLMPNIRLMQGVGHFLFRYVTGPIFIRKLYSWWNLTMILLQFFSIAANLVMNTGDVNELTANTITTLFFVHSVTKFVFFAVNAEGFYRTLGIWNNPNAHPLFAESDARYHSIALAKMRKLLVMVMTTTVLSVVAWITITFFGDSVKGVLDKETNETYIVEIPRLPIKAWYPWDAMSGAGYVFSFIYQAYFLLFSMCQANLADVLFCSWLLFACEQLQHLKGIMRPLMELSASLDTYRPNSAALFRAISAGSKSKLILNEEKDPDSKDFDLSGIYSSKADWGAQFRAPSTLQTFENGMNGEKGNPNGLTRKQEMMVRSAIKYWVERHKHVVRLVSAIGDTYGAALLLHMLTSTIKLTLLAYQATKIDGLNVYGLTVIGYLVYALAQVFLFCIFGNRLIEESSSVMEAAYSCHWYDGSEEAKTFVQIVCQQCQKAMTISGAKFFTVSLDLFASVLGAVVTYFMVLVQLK
test: voltage clamp of Xenopus oocytes
Format: cell-based
test.conditions: agonist (inward current), absolute value, coexpressed with CquiOrco
Each record here notes measured inward current at 1 mM.
quantity.kind: inward current at 1 mM (nA)

| compound | recorded.value |
| --- | --- |
| CCC(C)=O | 45 |
| CC(=O)c1ccccc1 | 58 |
| COc1ccccc1O | 101 |
| OCCc1ccccc1 | 44 |
| CCC1CCC(=O)O1 (centres unmarked) | 115 |
